Data provenance is PubChem BioAssay (NCI).

System: T-47D breast
assay-summary: NCI tumour cell line growth inhibition, 48 h; in the data active means GI50 below about 0.43 µM; inactive means the rest
Result category, one only: active, inactive

# input Hi, sorry to bother you, what did the test record for `CCCNNC(=O)/C=C/c1ccc(CNCCc2c(C)[nH]c3ccccc23)cc1` ?
# output active

# input Assay outcome for `Cc1nn(-c2nc3ccccc3[nH]2)c(N)c1-c1ccc(Cl)cc1` : what was it?
# output inactive

====

Each record here notes measured GI50.
Test system: NCI-H226 lung
assay-summary: NCI tumour cell line growth inhibition, 48 h

COc1ccc(-c2cn[nH]c2-c2cc(OC)c3c(c2)OCO3)cc1 : 1340 nM

// `COc1cccc(-c2nc3sccn3c2-c2ccnc(NCCCNS(=O)(=O)c3cccc(F)c3)c2)c1` : GI50 value = 2380 nM

Notebook: C=C1C(O)C2C(=C(CCc3ccccc3)C13CC3)C(=O)C(C)(CO)C2O (stereo not given) , GI50 read as > 100000 nM

Entry `O=C1c2ccccc2-c2c1c1c(=O)[nH]c3ccccc3c1n2Cc1ccccc1` ; GI50 = 24500 nM

Just so you know, measured GI50 for `CCOC(=O)N1CCN(c2nc(Nc3cc(C)[nH]n3)c3ccccc3n2)CC1` came out at 1580 nM

Measured GI50, `COc1cc(/C=C2\C(=O)Nc3cc(C)c(O)cc32)cc(OC)c1OC` : 15600 nM

Record `CC(C)(C)C(=O)c1c(C(F)(F)F)n([O-])c2ccccc2[n+]1=O` . Reported GI50: 840 nM

The recorded GI50 for `CCc1cccc(C)c1NC(=O)c1sc2nc3c(cc2c1N)CCCCC3` is 14500 nM

For record `CCCNNC(=O)/C=C/c1ccc(CNCCc2c(C)[nH]c3ccccc23)cc1` the listed GI50 is 29.1 nM

Consider `COc1cc(C#Cc2ccc(=O)oc2C#Cc2ccccc2)cc(OC)c1OC` . Its measured GI50 is 2590 nM
